# STUDY TARGET: purified recombinant human HER2 protein (Homo sapiens (Human))
# Sequence (P04626 23-1255): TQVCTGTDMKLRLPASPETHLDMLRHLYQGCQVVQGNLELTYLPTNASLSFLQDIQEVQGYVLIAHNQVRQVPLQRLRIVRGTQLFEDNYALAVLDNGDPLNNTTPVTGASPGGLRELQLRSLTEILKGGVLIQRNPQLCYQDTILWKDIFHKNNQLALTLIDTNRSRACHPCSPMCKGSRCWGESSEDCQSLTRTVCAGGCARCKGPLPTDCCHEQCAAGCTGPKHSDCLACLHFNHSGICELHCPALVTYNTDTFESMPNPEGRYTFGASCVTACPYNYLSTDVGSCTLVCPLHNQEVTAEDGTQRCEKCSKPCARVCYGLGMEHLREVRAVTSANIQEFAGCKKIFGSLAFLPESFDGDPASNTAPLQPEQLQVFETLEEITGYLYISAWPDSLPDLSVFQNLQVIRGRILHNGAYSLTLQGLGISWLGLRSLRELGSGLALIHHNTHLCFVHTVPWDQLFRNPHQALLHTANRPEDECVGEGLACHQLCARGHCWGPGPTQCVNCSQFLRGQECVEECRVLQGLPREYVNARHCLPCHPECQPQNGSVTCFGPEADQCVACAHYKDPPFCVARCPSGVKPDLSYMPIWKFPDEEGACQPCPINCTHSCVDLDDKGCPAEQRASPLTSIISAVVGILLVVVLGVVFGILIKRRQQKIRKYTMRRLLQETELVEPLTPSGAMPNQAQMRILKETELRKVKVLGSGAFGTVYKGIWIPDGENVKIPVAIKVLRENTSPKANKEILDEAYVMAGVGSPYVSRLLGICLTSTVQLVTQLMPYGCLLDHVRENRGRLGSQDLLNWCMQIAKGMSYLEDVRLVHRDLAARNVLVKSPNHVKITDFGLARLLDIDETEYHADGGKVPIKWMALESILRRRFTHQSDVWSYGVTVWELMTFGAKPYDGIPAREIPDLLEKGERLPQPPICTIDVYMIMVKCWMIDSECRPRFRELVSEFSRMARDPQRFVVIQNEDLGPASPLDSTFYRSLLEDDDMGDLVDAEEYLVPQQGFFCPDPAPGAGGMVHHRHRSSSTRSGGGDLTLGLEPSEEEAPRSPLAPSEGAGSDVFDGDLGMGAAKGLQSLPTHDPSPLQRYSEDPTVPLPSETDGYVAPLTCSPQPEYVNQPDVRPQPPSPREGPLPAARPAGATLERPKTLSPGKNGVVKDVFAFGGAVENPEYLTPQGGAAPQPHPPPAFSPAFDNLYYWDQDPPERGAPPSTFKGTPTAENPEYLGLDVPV
# ASSAY NOTES: Measurement of inhibitory effect on HER2-phosphorylating activity (in vitro)
# MEASUREMENT CONTEXT: ATP 6 μM, 25° C., 40 minutes
pIC50: −log10 of the molar value.
PROPERTY NAME: pIC50

1) C=CC(=O)N1CC[C@@H](n2nc(C(=O)Nc3ccc(CC(=O)N(C)C)c(Cl)c3OC)c3c(N)ncnc32)C1 [compound 55]
7.31
2) C=CC(=O)N1CC[C@@H](n2nc(C(=O)Nc3ccc(CC(=O)N(C)C)c(F)c3C)c3c(N)ncnc32)C1 [compound 56]
7.66
3) C=CC(=O)N1CCC[C@@H](n2nc(C(=O)Nc3ccc(CC(=O)N(C)C)c(F)c3)c3c(N)ncnc32)C1 [compound 42]
7.74
4) C=CC(=O)N1CC[C@@H](n2nc(C(=O)Nc3ccc(CC(=O)N(C)C)c(F)c3Cl)c3c(N)ncnc32)C1 [compound 65]
7.70
5) C=CC(=O)N1CCC[C@@H](n2nc(C(=O)Nc3ccc(CC(=O)N(C)C)c(Cl)c3OC)c3c(N)ncnc32)C1 [compound 11]
8.12
6) C=CC(=O)N1CCC[C@@H](n2nc(C(=O)Nc3ccc(CC(=O)N(C)C)cc3C)c3c(N)ncnc32)C1 [compound 4]
7.92
7) C=CC(=O)N1CCC[C@@H](n2nc(C(=O)Nc3ccc(CC(=O)N(C)C)cc3OC(F)F)c3c(N)ncnc32)C1 [compound 15]
8.07

###

# Tested on: HER2-overexpressing human breast cancer cell line SK-BR-3 cells
# ASSAY NOTES: Cytostatic activity against HER2-expressing cell line (SK-BR-3), CellTiter-Glo
# Format: cell-based
# MEASUREMENT CONTEXT: 3-day culture; read-out: SK-BR-3 cell growth inhibitory activity IC50 value
# Description: Rate of growth inhibition (%)=(C−T)/(C)×100 T: Luminescence intensity of a well supplemented with the test compound C: Luminescence intensity of a well not supplemented with the test compound HER2-overexpressing human breast cancer cell line SK-BR-3 cells were suspended in McCoy's 5a medium (manufactured by Life Technologies Corp.) containing 10% fetal bovine serum. […]
Threshold 20 nM: IC50 strictly smaller gives Fulfilled, otherwise Not fulfilled.

1) C=CC(=O)N1CCC[C@@H](n2nc(C(=O)Nc3ccc(OC(=O)N(C)C)c(Cl)c3)c3c(N)ncnc32)C1
Not fulfilled
2) C=CC(=O)N1CCC[C@@H](n2nc(C(=O)Nc3ccc(OC(=O)N(C)C)cc3OC)c3c(N)ncnc32)C1
Fulfilled
3) C=CC(=O)N1CCC[C@@H](n2nc(C(=O)Nc3ccc(OC(=O)N(C)C)c(C)c3)c3c(N)ncnc32)C1
Not fulfilled
4) C=CC(=O)N1CCC[C@@H](n2nc(C(=O)Nc3ccc(CC(=O)N(C)C)cc3C)c3c(N)ncnc32)C1
Fulfilled
5) C=CC(=O)N1CCC[C@@H](n2nc(C(=O)Nc3ccc(CC(=O)N(C)C)cc3OCF)c3c(N)ncnc32)C1
Not fulfilled
6) C=CC(=O)N1CCC[C@@H](n2nc(C(=O)Nc3cc(F)c(CC(=O)N(C)C)cc3C)c3c(N)ncnc32)C1
Not fulfilled
7) C=CC(=O)N1CCC[C@@H](n2nc(C(=O)Nc3ccc(OC(=O)N(C)C)cc3C)c3c(N)ncnc32)C1
Fulfilled
